# Assay Target: LKB1 kinase (Homo sapiens)
# Construct: the general method says FLAG-LKB1 instead) (N); made in house; host or cells: HEK293T (293T) cells, transfected; immunoprecipitation
# Sequence (Q15831 1-433): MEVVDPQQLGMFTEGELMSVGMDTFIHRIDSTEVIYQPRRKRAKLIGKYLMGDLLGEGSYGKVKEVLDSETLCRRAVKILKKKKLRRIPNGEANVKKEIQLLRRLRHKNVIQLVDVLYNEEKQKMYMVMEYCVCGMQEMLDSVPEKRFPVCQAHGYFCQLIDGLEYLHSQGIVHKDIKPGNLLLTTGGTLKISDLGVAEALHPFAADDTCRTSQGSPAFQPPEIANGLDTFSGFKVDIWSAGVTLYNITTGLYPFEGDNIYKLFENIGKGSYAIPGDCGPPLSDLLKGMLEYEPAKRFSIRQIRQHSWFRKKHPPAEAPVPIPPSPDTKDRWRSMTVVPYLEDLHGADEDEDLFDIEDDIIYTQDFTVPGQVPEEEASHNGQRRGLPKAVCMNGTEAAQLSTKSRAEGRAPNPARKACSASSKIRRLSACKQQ
# Measurement Description: In vitro kinase experiment with LKB1 kinase (excluding STRAD1 and MO25) and His-AMPK α1
# Type: biochemical
# Condition Label: metabolite 100 μM; FIG. 1J
Observation Type: phosphorylation of AMPK α1 by LKB1 kinase

Which phosphorylation of AMPK α1 by LKB1 kinase reading was recorded for the compound O=C(COP(=O)(O)O)[C@@H](O)[C@H](O)[C@H](O)COP(=O)(O)O [1,6-fructose diphosphate] ?
had no such effect

Please give the measured phosphorylation of AMPK α1 by LKB1 kinase for this compound: O=C(O)[C@@H](CO)OP(=O)(O)O [2-phosphoglycerate]
significantly inhibit

What does the data say about its phosphorylation of AMPK α1 by LKB1 kinase? Entry: O=C(O)[C@H](O)COP(=O)(O)O [3-phosphoglycerate]
significantly inhibit

GET /values?readout=phosphorylation of AMPK α1 by LKB1 kinase&item= O=CC(O)COP(=O)(O)O (stereo not shown) [3-phosphoglyceraldehyde]
had no such effect
